target: human recombinant serotonin (5-Hydroxytryptamine) 5-HT6 receptor (Homo sapiens); construct: expressed in transfected cells; host or cells: human HeLa cells; experiment: Serotonin 5-HT6 radioligand binding assay ([3H]LSD); details: compound at 1 μM, HeLa cells, read-out: Percent Inhibition of ligand binding, Serotonin (1 μM) 5-HT6
Sequence (P50406 whole entry): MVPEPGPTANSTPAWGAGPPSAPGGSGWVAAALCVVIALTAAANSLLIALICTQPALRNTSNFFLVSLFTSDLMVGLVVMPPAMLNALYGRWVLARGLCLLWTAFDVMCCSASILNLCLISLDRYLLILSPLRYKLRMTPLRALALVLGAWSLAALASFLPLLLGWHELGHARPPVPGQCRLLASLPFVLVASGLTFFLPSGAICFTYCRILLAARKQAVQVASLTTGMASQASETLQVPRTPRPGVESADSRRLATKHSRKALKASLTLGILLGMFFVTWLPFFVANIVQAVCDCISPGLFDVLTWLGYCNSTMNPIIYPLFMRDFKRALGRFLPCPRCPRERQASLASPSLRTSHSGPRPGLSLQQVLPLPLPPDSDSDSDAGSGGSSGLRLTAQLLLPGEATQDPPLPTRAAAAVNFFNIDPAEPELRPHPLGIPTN
Lab note: anything with inhibition at 1 µM at or over 20% counts as TRUE; the rest go in FALSE.

> print(dat)
                                test.smiles  qualitative.label
1  Cc1ccc2c(c1)c1c(n2CCc2ccc(C)nc2)CCN(CCC#N)C1              FALSE
2  CN1CCc2c(c3cc(Cl)ccc3n2CC(=O)c2ccc(Cl)cc2)C1               TRUE
3  Cc1ccc2c(c1)c1c(n2CCc2ccc(C)nc2)CCN(CCCCO)C1               TRUE
4  CN1CCc2c(c3cc(Cl)ccc3n2CC(=O)c2ccccc2)C1               TRUE
5  Cc1ccc2c(c1)c1c(n2CCc2ccc(CCCN)nc2)CCN(C)C1               TRUE

Where do these numbers come from? They come from patent US9255094B2.
